The values you see were collected from patent US20250288704A1.

Experiment Description: Biodistribution in Jurkat tumor-bearing CB-17 SCID mice
Type: in vivo
Condition Description: female, CB-17 SCID, mouse, in vivo, iv, total radioactivity, % iD/g Muscle
Non-standard residues stand in square brackets, D forms with d. Residues, ends and D or L forms follow the SMILES beside them. Groups on a side chain read outwards from the residue. *: point of attachment. DOTA = O=C(O)CN1CCN(CC(=O)O)CCN(CC(=O)*)CCN(CC(=O)O)CC1; dTyr(3-I) = N[C@H](Cc1ccc(O)c(I)c1)C(=O)O; 2Nal = N[C@@H](Cc1ccc2ccccc2c1)C(=O)O; dNMeOrn = CN[C@H](CCCN)C(=O)O; 4Abz = Nc1ccc(C(=O)O)cc1; dDap = NC[C@@H](N)C(=O)O
Measured Parameter: tissue uptake at 48 h (%ID/g)
Numbers only; they are read as %ID/g.

For the molecule C[C@@H](NC(=O)[C@@H](CCCNC(=N)N)NC(=O)[C@@H](CN)NC(=O)CN1CCN(CC(=O)O)CCN(CC(=O)O)CCN(CC(=O)O)CC1)C(=O)Nc1ccc(C(=O)NCCC[C@@H]2C(=O)N[C@@H](CCCNC(=N)N)C(=O)N[C@@H](Cc3ccc4ccccc4c3)C(=O)NCC(=O)N[C@H](Cc3ccc(O)c(I)c3)C(=O)N2C)cc1 [CXCR4-DOTA-4 [Lu]] (cyclo([dTyr(3-I)][dNMeOrn]([4Abz-dA-dR-dDap-DOTA])R[2Nal]G)) , give its measured tissue uptake at 48 h value.
0.05

Kindly indicate its recorded tissue uptake at 48 h. Item: C[C@@H](NC(=O)[C@@H](CCCNC(=N)N)NC(=O)[C@@H](CN)NC(=O)CN1CCN(CC(=O)O)CCN(CC(=O)O)CCN(CC(=O)O)CC1)C(=O)Nc1ccc(C(=O)NCCC[C@@H]2C(=O)N[C@@H](CCCNC(=N)N)C(=O)N[C@@H](Cc3ccc4ccccc4c3)C(=O)NCC(=O)N[C@H](Cc3ccc(O)cc3)C(=O)N2C)cc1 [CXCR4-DOTA-3 [Lu]] (cyclo([dY][dNMeOrn]([4Abz-dA-dR-dDap-DOTA])R[2Nal]G))
0.01

----------
Experiment Description: Biodistribution in Daudi xenograft bearing CB-17 SCID mice
Assay type: in vivo
Condition Description: mouse, iv, total radioactivity, Blood, 1 h p.i., CB-17 SCID female mice, read-out: % iD/g Blood
Positions of bridges follow the written chain, without caps; N, C: chain ends. Non-standard residues stand in square brackets, D forms with d. Residues, ends and D or L forms follow the SMILES beside them. Chains are numbered I, II in the order given. *: point of attachment. 2Nal = N[C@@H](Cc1ccc2ccccc2c1)C(=O)O; dNMeOrn = CN[C@H](CCCN)C(=O)O; Mercaptoacetyl = O=C(CS)*; 4Abz = Nc1ccc(C(=O)O)cc1
Measured Parameter: tissue uptake at 1 h (%ID/g)
Lab book: enter the figure in %ID/g, no units written.

Give tissue uptake at 1 h for the following molecule: C[C@@H](NC(=O)[C@@H](CCCNC(=N)N)NC(=O)[C@@H](CO)NC(=O)[C@@H](CO)NC(=O)[C@@H](CO)NC(=O)CS)C(=O)Nc1ccc(C(=O)NCCC[C@@H]2C(=O)N[C@@H](CCCNC(=N)N)C(=O)N[C@@H](Cc3ccc4ccccc4c3)C(=O)NCC(=O)N[C@H](Cc3ccc(O)cc3)C(=O)N2C)cc1 [Tc-CXCR4-1] (I: Mercaptoacetyl-[dS][dS][dS][dR][dA][4Abz] / II: cyclo([dY][dNMeOrn]R[2Nal]G); amide I:C-II:2)
0.83
